Values were extracted from paper PMC11649115.

- assay: Metabolic stability in liver microsomes
- details: dog, microsomes, pH 7.4
measured parameter: remaining at 0 h, 10 μM (%)
Number only, in %; omit the unit.

The compound identified as Cc1ncc2n1-c1ccc(Cl)cc1C(c1ccccc1F)=NC2 [Midazolam, reference compound] registered its remaining at 0 h, 10 μM at 100

----------
- subject of test: CYP3A4 (Homo sapiens)
- assay: CYP inhibition in human liver microsomes
- details: CYP activity (% of Control) 3A4 (Midazolam), substrate midazolam, 10 μM
measured parameter: activity at 20 min, 10 µM (%)
Answer in %, number only, no unit symbol.

Lab book: activity at 20 min, 10 µM of S=P(N1CC1)(N1CC1)N1CC1 [ThioTEPA] noted as 92.6

----------
- subject of test: CYP3A4 (Homo sapiens, UniProt P08684)
- Sequence (P08684 2-503): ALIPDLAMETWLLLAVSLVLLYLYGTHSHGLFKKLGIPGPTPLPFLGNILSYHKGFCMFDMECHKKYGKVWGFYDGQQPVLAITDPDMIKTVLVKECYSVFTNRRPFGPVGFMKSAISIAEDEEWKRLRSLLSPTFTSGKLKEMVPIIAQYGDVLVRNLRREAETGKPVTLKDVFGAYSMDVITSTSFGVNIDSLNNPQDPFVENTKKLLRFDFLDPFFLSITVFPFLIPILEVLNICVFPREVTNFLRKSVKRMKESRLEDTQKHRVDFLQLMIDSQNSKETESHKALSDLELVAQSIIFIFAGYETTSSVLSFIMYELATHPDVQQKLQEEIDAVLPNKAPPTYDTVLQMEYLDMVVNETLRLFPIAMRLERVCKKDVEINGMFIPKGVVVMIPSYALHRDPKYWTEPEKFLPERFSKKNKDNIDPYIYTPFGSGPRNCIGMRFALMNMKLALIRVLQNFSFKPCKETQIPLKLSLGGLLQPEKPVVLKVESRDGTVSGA
- assay: in vitro
- details: microsomes, CYP activity (% of Control) 3A4 (Midazolam)
measured parameter: activity at 20 min, 0.1 µM (%)
Give the quantity in %, number only.

Let me check: CCc1cc(Cl)c(OC)c(N2CCN(CC(O)CCNC(=O)c3cc4ccccc4[nH]3)CC2)c1 (stereo not shown) , system CYP3A4 (Homo sapiens, UniProt P08684), measured activity at 20 min, 0.1 µM is 97.5

----------
- subject of test: OATP1B1 (Homo sapiens, UniProt Q9Y6L6)
- Construct: expressed in transfected cells; host or cells: MDCK-II cells
- Sequence (Q9Y6L6 1-691): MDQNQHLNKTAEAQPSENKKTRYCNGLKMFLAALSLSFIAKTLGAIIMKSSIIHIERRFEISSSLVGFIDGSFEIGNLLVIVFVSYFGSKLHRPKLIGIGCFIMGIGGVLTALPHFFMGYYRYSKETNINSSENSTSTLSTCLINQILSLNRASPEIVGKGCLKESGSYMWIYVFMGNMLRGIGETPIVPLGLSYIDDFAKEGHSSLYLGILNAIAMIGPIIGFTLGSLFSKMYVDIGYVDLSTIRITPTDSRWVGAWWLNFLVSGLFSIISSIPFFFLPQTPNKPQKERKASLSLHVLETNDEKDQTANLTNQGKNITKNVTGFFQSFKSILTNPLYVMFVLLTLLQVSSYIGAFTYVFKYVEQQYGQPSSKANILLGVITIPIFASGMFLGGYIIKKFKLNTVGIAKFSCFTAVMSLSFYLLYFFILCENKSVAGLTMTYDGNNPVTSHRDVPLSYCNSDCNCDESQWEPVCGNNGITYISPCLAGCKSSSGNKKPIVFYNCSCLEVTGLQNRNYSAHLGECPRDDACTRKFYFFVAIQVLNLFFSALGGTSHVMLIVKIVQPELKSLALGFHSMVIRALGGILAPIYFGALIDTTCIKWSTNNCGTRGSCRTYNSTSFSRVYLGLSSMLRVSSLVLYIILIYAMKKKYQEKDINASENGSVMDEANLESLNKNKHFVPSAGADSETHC
- assay: Transporter mediated assay (substrate/inhibitor), MDCK-II cells
- Format: in vitro ADME
- details: human, polarized monolayer of MDCK-II cells expressing OATP1B1; OATP1B1, 0.1% BSA, 10 μM
measured parameter: inhibition at 10 µM (%)
Lab book: enter the figure in %, no units written.

Measured inhibition at 10 µM of CCc1cc(Cl)c(OC)c(N2CCN(CC(O)CCNC(=O)c3cc4ccccc4[nH]3)CC2)c1 (stereo not shown) : 5.5
